Tested on: HOP-92 NSCLC
protocol details: NCI-60 one-dose screen, 48 h
run parameters: 10 µM unless noted
This is part of a sample that, as a whole, favours compounds with a hit. Of some 83,000 tested, about 20% had one in any assay. The source made the active and inactive calls. How the source made its calls: active means growth percent below 10; inactive means the rest.
A correct response names exactly one class from active, inactive

N=c1c2c(-c3ccccc3)c(-c3ccccc3)oc2ncn1NC(=O)c1cccnc1 ... inactive

Please examine the following record next.
[Q] Check the results log: what was the call for "COc1ccc2c(c1)c(C(=O)c1nc(-c3cn(C)c4ccccc34)no1)cn2C" ?
[A] inactive

====

Tested on: OVCAR-3 ovarian
protocol details: NCI-60 one-dose screen, 48 h
run parameters: 10 µM unless noted
Compounds without any hit were thinned out: in the full panel of roughly 83,000, 20% have a hit. Activity calls are given as the source filed them. Rule for the calls: active = growth percent below 10; inactive = the rest.
Your reply should match one of these outcome classes. YES for active, NO for inactive

CCN(C(=O)N1CCN(c2cc3c(cc2F)c(=O)c(C(=O)O)cn3C2CC2)CC1)c1nc(-c2ccccc2)cs1 ... NO
Fc1ccc(NC(c2ccc(F)cc2)C2CCN(CCCCc3ccccc3)CC2)cc1 (stereo unspecified) ... NO
CC(=O)N1N=C(c2ccc(Nc3nc(Nc4ccc(F)cc4)nc(Nc4ccc(F)cc4)n3)cc2)CC1c1ccccc1 (stereo unspecified) ... NO
CCN(c1cc(-c2ccc(CN3CCC(/C=C/S(=O)(=O)c4ccccc4)CC3)cc2)cc(C(=O)NCc2c(C)cc(C)[nH]c2=O)c1C)C1CCOCC1 ... NO

[Q] Which outcome did this test record for the molecule COc1ccc2nc3cc(Cl)ccc3c(NCCCNCCC(C)O)c2c1 (stereo unspecified) ?
[A] YES

[Q] Likewise for Cc1cnc(C(=O)NNc2nc3sc4c(c3c(=O)[nH]2)C(C)CCC4)cn1 (stereo unspecified) ?
[A] NO

[Q] Query "Cc1ccc(-c2nc3nc(-c4ccccc4)nc(N4CCN(S(=O)(=O)c5ccccc5)CC4)c3o2)cc1" next
[A] NO

[Q] For "CCCCn1c(C(=O)c2c[nH]c3ccccc23)n[nH]c1=S" then?
[A] NO

[Q] Now the same for "COc1ccc(N2CCN(S(=O)(=O)c3oc(-c4ccccc4)nc3C#N)CC2)cc1"
[A] NO

[Q] Check "COc1ccc(Cl)cc1Nc1nc(C(F)(F)F)ccc1C(=O)N/N=C/c1ccc(N(C)C)cc1" too.
[A] NO

[Q] Can you check C#CCOCC1CN(C)C(=O)O1 (stereo unspecified) next?
[A] NO

[Q] Another molecule to look at: "CCCNNC(=O)/C=C/c1ccc(CNCCc2c(C)[nH]c3ccccc23)cc1"
[A] NO

[Q] Try "Clc1ccc(Nc2nc(Nc3ccc(Cl)cc3)nc(Nc3ccc(-c4cc(-c5cccc(Cl)c5)on4)cc3)n2)cc1" next.
[A] NO

[Q] Record: "COC(=O)[C@H]1Cc2c([nH]c3ccccc23)[C@@H](c2cccs2)N1"
[A] NO

[Q] Similarly, "Cc1ccc(-c2nc3nc(-c4ccc(Cl)cc4)nc(N4CCCNCC4)c3o2)cc1" ?
[A] YES

[Q] Try the molecule "C=C[C@]1(C)C=C2CC[C@@H]3C(C)(C)C(=O)CC[C@@]3(C)[C@@H]2CC1"
[A] NO

[Q] Entry to check: "O=c1c(/C=C/c2ccco2)nnc2sc(Nc3ccc(Cl)cc3)nn12"
[A] NO

[Q] Now consider "C=C1C(=O)O[C@H]2[C@H]1CC/C(COC(=O)NCCCCNC(=O)OC/C1=C/CC[C@@]3(C)O[C@H]3[C@H]3OC(=O)C(=C)[C@@H]3CC1)=C\CC[C@@]1(C)O[C@@H]21" and answer again.
[A] YES

[Q] Then what about the molecule "CCCCC#Cc1c(/C=C(\CCCC)SCC)n(C)c(=O)[nH]c1=O" ?
[A] NO

[Q] Then this molecule: "O=C1C=C(Nc2ccccc2)c2ncccc2C1=O"
[A] YES

[Q] Quick one: CC1(Cc2ccccc2)CC2=C(C(=O)O1)C(c1ccccc1)NC(=O)N2 (stereo unspecified)
[A] NO

[Q] Next up: "Nc1n[nH]c2cccc(C#Cc3cccc(NC(=O)c4ccc(N5CCOCC5)c(C(F)(F)F)c4)c3)c12"
[A] NO

[Q] Note, next up: "CC(=O)c1c(C)nc(SCC(=O)Nc2ccc(Cl)cc2)n1-c1ccc(Cl)cc1"
[A] NO

[Q] Another molecule to check: "O=C(NNc1ccccc1)c1ncc[nH]1"
[A] NO

[Q] Repeat with "O=[N+]([O-])c1ccc2[nH]c3nccc(NCc4cccc(Cl)c4)c3c2c1"
[A] NO

[Q] Request: "O=C(N=Nc1c(O)[nH]c2ccccc12)Nc1ccc(Br)cc1"
[A] NO

====

System: TK-10 renal
protocol details: NCI-60 one-dose screen, 48 h (100 = growth as untreated, 0 = no growth, -100 = all killed)
run parameters: 10 µM unless noted
This is part of a sample that, as a whole, favours compounds with a hit. Of some 83,000 tested, about 20% had one in any assay. Calls of active or inactive are those of the source. The calls were made as follows: active = growth percent below 10; inactive = the rest.
readout: growth

Would you please look over these solved cases?
O=C(Nc1ccc(F)cc1)c1cc2cc(Nc3nc(-c4ccccc4)nc4ccccc34)ccc2oc1=O ... 97.3% (inactive)
Cc1ccc(Nc2nc(-c3cc(O)c(C)c(C)c3O)cs2)cc1 ... 120% (inactive)

# next compound below
[Q] Consider the compound shown here: Cc1cnc(C(=O)NNc2nc3sc4c(c3c(=O)[nH]2)C(C)CCC4)cn1 (stereo not drawn) What is its recorded growth?
[A] 33.5% (inactive)

====

Test system: M14 melanoma
protocol details: NCI-60 one-dose screen, 48 h (100 = growth as untreated, 0 = no growth, -100 = all killed)
run parameters: 10 µM unless noted
The panel holds about 83,000 compounds, 20% with a hit somewhere; the sample as a whole holds those more often.
Note to self: growth under 20% means 1, ties and anything higher get -1.

Cc1ccc(-c2nc([P+](c3ccccc3)(c3ccccc3)c3ccccc3)c(Nc3ccccc3)o2)cc1 ... 1
N#CC(Cc1cccc2ccccc12)c1cc2ccccc2[nH]1 (stereo unspecified) ... -1
CN(Cc1ccccc1)c1nc(Cl)c(C2CC(c3ccc(F)cc3)=NN2C=O)s1 (stereo unspecified) ... -1
CCOC(=O)n1cc(-c2nonc2-c2cn(C)c3ccc(OC)cc23)c2cc(F)ccc21 ... -1
O=C(Nc1ncc(Cc2cccc(C(F)(F)F)c2)s1)c1ccc2c(c1)OCCO2 ... -1

// switching to the query compound
[Q] Hi there! Is growth for "C=C1C(=O)O[C@H]2[C@H]1CC/C(COC(=O)NCc1ccc(Cn3c(=O)sn(CCCI)c3=O)cc1)=C\CC[C@@]1(C)O[C@@H]21" below 20%, do you know?
[A] 1

====

Test system: SW-620 colon
protocol details: NCI-60 one-dose screen, 48 h
run parameters: 10 µM unless noted
The panel holds about 83,000 compounds, 20% with a hit somewhere; the sample as a whole holds those more often. Calls of active or inactive are those of the source. The calls were made as follows: active = growth percent below 10; inactive = the rest.
# valid calls are active, inactive; nothing else

[Q] Returns: the outcome recorded for "Cc1ccc(/C=C2\COc3ccc(O)c(O)c3C2=O)cc1" in this assay.
[A] active

[Q] Queued: "CCCCCCCCCCCCCCCCCCn1cc(COc2ccc(C=O)cc2)nn1"
[A] inactive

[Q] Next compound: "COc1ccc(-c2nn3c(-c4cc(F)c(Cl)cc4Cl)nnc3s2)cc1"
[A] inactive

[Q] One more compound: "COc1ccc(/C=C(\C#N)c2cc3ccccc3[nH]2)cc1"
[A] active

[Q] Could you do the same for "Cc1[nH]c(C(=O)Nc2nc3ccc(NC(=O)CCN)cc3s2)c(Cl)c1Cl" , please?
[A] inactive

[Q] Now consider "Cc1ccccc1SSc1ccccc1C" .
[A] inactive

====

System: PC-3 prostate
protocol details: NCI-60 one-dose screen, 48 h (100 = growth as untreated, 0 = no growth, -100 = all killed)
run parameters: 10 µM unless noted
This is part of a sample that, as a whole, favours compounds with a hit. Of some 83,000 tested, about 20% had one in any assay.
Returns one of t or f; t when growth is >= 60%.

CCOC(=O)C(=CCC(C)C)C(=O)OCC ... t
CN1CCN(CCNC(=O)c2cccc(CN3c4cccc5c4C(=Cc4cccnc43)N(C)C5=O)c2)CC1 ... f
C=C1C(=O)O[C@@H]2[C@H]3[C@H](COC(C)=O)[C@@H](OC(C)=O)C[C@H]3C(=C)[C@@H](O)C[C@@H]12 ... t
O=C(Cc1ccc(F)cc1)c1ccccc1 ... t
CN1CCN(Cc2ccc(NC(=O)c3nc4ccc5[nH]ncc5c4c4c3CCCC4)cc2C(F)(F)F)CC1 ... f

[Q] Is it the case that "COc1cc(OC)cc(-c2ccc(-c3ccc(C(=N)N)cn3)s2)c1" has growth reaching or exceeding 60%?
[A] t

[Q] What would you report for "CONC1=Nc2cc(NC(N)=NCc3ccccc3)c(N(C)C3CCCCC3)cc2OC1" ?
[A] f

[Q] Item: "COc1ccc(CCNC(=O)COc2cc3c(Nc4ccc(F)c(Cl)c4)ncnc3cc2OC)cc1OC"
[A] t
